Numbers sourced from PubChem BioAssay (NCI).

protocolDescription: NCI Yeast Anticancer Drug Screen. Data for the cln2 rad14 strain (AID 165);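 note: 0% = growth equal to vehicle treated cultures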
statedConditions: S. cerevisiae cln2 rad14 strain, at 50.0 µM, hits give high values
About 79,000 compounds went through this panel and 15% of them were active in at least one assay; those are over-represented in the sample as a whole.
endpointLabel: growth inhibition (%)
Answer with a number only, understood to be in %.

q: Give the reported growth inhibition for this molecule. FCCN(CCF)Cc1ccc2c(c1)OCO2
a: -63.1

q: Give the reported growth inhibition for this molecule. O=C1OC(Cl)C=C1c1ccccc1 (configuration not stated)
a: -36.5

q: Give the reported growth inhibition for this molecule. O=C/C=C/C=C/C=C/c1ccccc1
a: 13.7

q: Give the reported growth inhibition for this molecule. C=CCOCc1ccc(C(C)(C)CC(C)(C)C)cc1
a: -75.5

q: Give the reported growth inhibition for this molecule. O=C(O)Cc1c(O)ccc2ccccc12
a: -29.8

q: Give the reported growth inhibition for this molecule. Cc1ccc(Cl)cc1NC(=O)Oc1ccc(C(C)(C)C)cc1Br
a: 1.5

q: Give the reported growth inhibition for this molecule. CCCCCCCCCCCCCCCC(=O)O[C@@H]1[C@@H](C)[C@@]2(O)[C@@H](C=C(CO)C[C@]3(O)C(=O)C(C)=C[C@@H]23)[C@H]2[C@]1(OC(C)=O)[C@]2(C)CO
a: 30.9

q: Give the reported growth inhibition for this molecule. NC(=O)CC(NC(=O)OCc1ccccc1)C(N)=O (configuration not stated)
a: -12.4

q: Give the reported growth inhibition for this molecule. Cc1ccc(-c2nnc(C)o2)cc1
a: -35.6

q: Give the reported growth inhibition for this molecule. c1cc2c3c(c1)ccc1cccc(c13)C2
a: 11.9

q: Give the reported growth inhibition for this molecule. CCN(CC)C(=O)Cc1ccc2c3c(cccc13)CC2
a: -0.75

q: Give the reported growth inhibition for this molecule. CC1(C)C2=CCCC(=O)[C@@]2(C)CC[C@@H]1O
a: -26.1

---

growth inhibition values, listed per item
protocolDescription: NCI Yeast Anticancer Drug Screen. Data for the mec2-1 strain (AID 157)
statedConditions: S. cerevisiae mec2-1 strain, at 50.0 µM, hits give high values
Compounds without any hit were thinned out: in the full panel of roughly 79,000, 15% have a hit. Active and inactive are the calls of the source. Cut-off read from the data, not from the text of the source: active = growth inhibition above about 70%; inactive = the rest.

Some solved cases for reference:
O=C1OC(/C=C/c2ccccc2)=NC/1=C\c1ccccc1O = 8.6% (inactive)
O=C1c2ccccc2C(=O)c2[nH]ncc21 = 13.8% (inactive)
CCCCCCOC(=O)CCBr = 2.35% (inactive)
CN(C)c1nc2oc(-c3ccccc3)c(-c3ccccc3)c2c2nnnn12 = 8.05% (inactive)
O=C(O)c1ccc(C(=O)c2ccccc2)c(C(=O)O)c1 = -1.8% (inactive)
O=C1CC2C(O)OC(O)C(C1)N2C(=O)OCC(Cl)(Cl)Cl (centres undefined) = -15.9% (inactive)

q: Give the reported growth inhibition for this compound. N#CSCCOCCOC(=O)NC1CCCCC1
a: 4.75% (inactive)

q: Give the reported growth inhibition for this compound. CCOC(=O)NCc1cccc2ccccc12
a: -2.7% (inactive)

q: Give the reported growth inhibition for this compound. Cc1cccc(C(C)C)c1NC(=O)/C(Cc1c([N+](=O)[O-])cccc1[N+](=O)[O-])=N/NC(=O)CC#N
a: -3.6% (inactive)

---

protocolDescription: NCI Yeast Anticancer Drug Screen. Data for the cln2 rad14 strain (AID 165);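 note: 0% = growth equal to vehicle treated cultures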
statedConditions: S. cerevisiae cln2 rad14 strain, at 50.0 µM, hits give high values
The panel holds about 79,000 compounds, 15% with a hit somewhere; the sample as a whole holds those more often.
growth inhibition values, listed per item
Answer with a number only, understood to be in %.

Some solved cases for reference:
COc1ccccc1NC(=O)c1nc2ccc([N+](=O)[O-])cc2nc1C = 15.4
CC(C)(C)CC(C)(C)c1ccc(OCCOc2ccc(C(=O)Nc3ccc([N+](=O)[O-])cc3)cc2)cc1 = 6
Nc1n[nH]c(=S)s1 = -8.7
NC(=O)[C@H]1CC2CCC1C2 (stereo partly specified) = 5
CCCCCCCCC(=O)N1CCOCC1 = 16.4

q: Give the reported growth inhibition for this compound. N#Cc1cnn(-c2ccc([N+](=O)[O-])cc2)c1N
a: -26.6

---

growth inhibition values, listed per item
protocolDescription: NCI Yeast Anticancer Drug Screen. Data for the sgs1 mgt1 strain (AID 161);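 note: 0% = growth of cultures given vehicle only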
statedConditions: S. cerevisiae sgs1 mgt1 strain, at 50.0 µM, hits give high values
Experimental: Growth inhibition of yeast strains with defined genetic alterations is measured as a screen for potential anti-cancer activity. Selected strains with alterations in DNA damage repair or cell cycle control were exposed to compounds and growth inhibition was measured relative to vehicle treated controls. The strain used in this assay is sgs1 mgt1
This is part of a sample that, as a whole, favours compounds with a hit. Of some 79,000 tested, about 15% had one in any assay.
Answer with a number only, understood to be in %.

Some solved cases for reference:
CC1=CCCC(C)(C)C1/C=C/C(C)=N/NC(=O)Nc1ccccc1 (stereo not drawn) = 0.25
O=C1CS[C@@H]2C(=O)CCCC2C1 (stereo partly drawn) = -1.8
[N-]=[N+]=CC(=O)CCN1C(=O)c2ccccc2C1=O = -4.75
CCCCCCCC(=O)OCC1OC(n2cc(F)c(=O)[nH]c2=O)C(NC(=O)OCc2ccccc2)C(OC(=O)CCCCCCC)C1O (stereo not drawn) = 13.4
CCOC(=O)CCC(NC(=O)OCc1ccccc1)C(=O)NC(CCC(=O)OCC)C(=O)NC(CCC(=O)OCC)C(=O)NC(CCC(=O)OCC)C(=O)NC(CCC(=O)OCC)C(=O)NC(CCC(=O)OCC)C(=O)NC(CCC(=O)OCC)C(=O)OCC (stereo not drawn) = -10.2
CNc1ccc([N+](=O)[O-])cc1C(=O)OC = -8.55
O=C(Nc1nc2ccsc2s1)c1ccccc1 = -4
CC(c1ccccc1)N1COc2cc3c(cc2C1)OCN(C(C)c1ccccc1)C3 (stereo not drawn) = -29.8

q: Give the reported growth inhibition for this compound. N#C/C(=C\N1CC(=O)NC1=S)c1nc2ccccc2s1
a: -6.05

q: Give the reported growth inhibition for this compound. COC(=O)NC1=Nc2ccccc2N(C(=O)Oc2ccccc2)S1
a: 26.4

q: Give the reported growth inhibition for this compound. O=C(O)CS(=O)(=O)O
a: -4.3

q: Give the reported growth inhibition for this compound. NCCCNCCCCNCCCNCc1c2ccccc2c(CNCCCNCCCCNCCCN)c2ccccc12
a: 93.2

q: Give the reported growth inhibition for this compound. CN=CN(C)c1c2ccccc2nc2ccccc12
a: -5.05

q: Give the reported growth inhibition for this compound. O=CNC(NC=O)c1ccccc1[N+](=O)[O-]
a: 30.1

q: Give the reported growth inhibition for this compound. C[N+]1(C)CCCC(CN2c3ccccc3Sc3ccccc32)C1 (stereo not drawn)
a: 7.85

q: Give the reported growth inhibition for this compound. CCOC(=O)C12CCCC1(O)N(NC(=O)c1ccccc1)C(C)=C2C(=O)OC (stereo not drawn)
a: 6.3

q: Give the reported growth inhibition for this compound. O=C(Oc1c(Cl)cc(Cl)cc1C=Nc1ccc(Cl)cc1)c1ccccc1
a: 88.7

---

protocolDescription: NCI Yeast Anticancer Drug Screen. Data for the mec2-1 strain (AID 157)
statedConditions: S. cerevisiae mec2-1 strain, at 50.0 µM, hits give high values
This is part of a sample that, as a whole, favours compounds with a hit. Of some 79,000 tested, about 15% had one in any assay. The source made the active and inactive calls. Rule as the data show it: active = growth inhibition above about 70%; inactive = the rest.
endpointLabel: growth inhibition

Some solved cases for reference:
CCCCC(c1nc2c(c3c1CCCC3)CCCC2)C(O)(C(F)(F)F)C(F)(F)F (configuration not stated) = 7% (inactive)
C=C(C)C(=O)Nc1ccc(-n2[nH]c(C)c(N=Nc3ccc(N(C)C)cc3)c2=O)cc1 = -5.5% (inactive)
COc1ccc(-c2nc(SCc3ccc(Cl)cc3)[nH]c(=O)c2CCO)cc1 = -7.75% (inactive)
NC(=S)N/N=C/c1ccccc1S(=O)(=O)O = -12.8% (inactive)
CCOC(=O)C(C(O)c1ccc([N+](=O)[O-])cc1)P(=O)(OCC)OCC (configuration not stated) = -16.4% (inactive)

q: Give the reported growth inhibition for this compound. O=C1CNS(=O)(=O)N1
a: 8.45% (inactive)

---

protocolDescription: NCI Yeast Anticancer Drug Screen. Data for the sgs1 mgt1 strain (AID 161);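 note: 0% = growth of cultures given vehicle only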
statedConditions: S. cerevisiae sgs1 mgt1 strain, at 50.0 µM, hits give high values
The panel holds about 79,000 compounds, 15% with a hit somewhere; the sample as a whole holds those more often.
growth inhibition values, listed per item
Answer with a number only, understood to be in %.

Some solved cases for reference:
CN(C)CC(O)c1ccc(Cl)c2ccccc12 (configuration not stated) = -31.9
COc1ccc2c(c1)CCC1=C2CCC2=CC(=O)CC[C@@]21C = 4.4
O=C(O)C1=C(c2ccccc2)C=C(c2ccccc2)C1 = 12.8
CCCCC(C=O)(CC)CCC#N (configuration not stated) = 46.3
CC(=O)NC(C)Cc1ccc(C(=O)O)cc1 (configuration not stated) = -8.5

q: Give the reported growth inhibition for this molecule. NC(CCCCCCCCCCP(=O)(O)O)C(=O)O (configuration not stated)
a: -76.4

q: Give the reported growth inhibition for this molecule. CNc1nc(N)nc(N)c1N1CCN(c2ccc(C(=O)O)cc2)CC1
a: 19.8
